- Test system: Thromboplastin C
- testProtocol: Hydrolysis of chromogenic substrates by thromboplastin C
- Format: biochemical
- measurementContext: Thromboplastin C 5%; substrate 50 μmol/l; after 92 hours at room temperature; 405 nm
Starred links: 1 amine or outer side, 2 acyl side, 3 side chain; linkers in the order of their positions; H or OH if unused. Non-standard residues stand in square brackets, D forms with d. Residues, ends and D or L forms follow the SMILES beside them. *: point of attachment. Benzoyl(5-NH,2-NO2) = O=C(c1cc(N[*:1])ccc1[N+](=O)[O-])[*:2]; pNA = O=[N+]([O-])c1ccc(N*)cc1; Tos = Cc1ccc(S(=O)(=O)*)cc1
Overview of reported Difference in extinction (hydrolysis of chromogenic substrate) across a group of compounds:

Use the examples below as a reference point.
{"compound": "C[C@H](NC(=O)CCC(=O)O)C(=O)N[C@@H](C)C(=O)N[C@@H](C)C(=O)Nc1ccc([N+](=O)[O-])cc1 [Suc-(Ala)3-pNA, reference compound]", "observed": "0,248"}
{"compound": "Cc1ccc(S(=O)(=O)NCC(=O)N2CCC[C@H]2C(=O)N[C@@H](CCCNC(=N)N)C(=O)Nc2ccc([N+](=O)[O-])cc2)cc1 [Tos-Gly-Pro-Arg-pNA, reference compound] (Tos-Gly-Pro-Arg-pNA)", "observed": "0,115"}

Query: Value lookup for Difference in extinction (hydrolysis of chromogenic substrate); key = CCOC(=O)CNC(=O)c1cc(NC(=O)[C@H](CCCNC(=N)N)NC(=O)[C@@H]2CCCN2C(=O)[C@H](N)Cc2ccccc2)ccc1[N+](=O)[O-] [D-Phe-Pro-Arg-ANBA-Glycine ethyl ester] (H-[dF]PR[Benzoyl(5-NH,2-NO2)]G-OEt)
Response: 0,015

Query: Value lookup for Difference in extinction (hydrolysis of chromogenic substrate); key = NCCCC[C@H](NC(=O)c1ccccc1)C(=O)Nc1ccc([N+](=O)[O-])cc1 [N-α-Benzoyl-L-Lysine-pNA, reference compound]
Response: 0,433

Query: Value lookup for Difference in extinction (hydrolysis of chromogenic substrate); key = CC(C)C[C@H](N)C(=O)Nc1ccc([N+](=O)[O-])cc1 [Leu-pNA, reference compound]
Response: 0,721

Query: Value lookup for Difference in extinction (hydrolysis of chromogenic substrate); key = CCOC(=O)CNC(=O)c1cc(NC(=O)[C@H](CCCNC(=N)N)NC(=O)[C@@H]2CCCN2C(=O)CNS(=O)(=O)c2ccc(C)cc2)ccc1[N+](=O)[O-] [Tos-Gly-Pro-Arg-ANBA-Glycine ethyl ester] (Tos-GPR[Benzoyl(5-NH,2-NO2)]G-OEt)
Response: 0,028

Query: Value lookup for Difference in extinction (hydrolysis of chromogenic substrate); key = CCCCNC(=O)c1cc(NC(=O)[C@H](CCCNC(=N)N)NC(=O)[C@@H]2CCCN2C(=O)[C@H](N)Cc2ccccc2)ccc1[N+](=O)[O-] [D-Phe-Pro-Arg-ANBA-n-Butylamide]
Response: 0,019

Query: Value lookup for Difference in extinction (hydrolysis of chromogenic substrate); key = CC(C)(C)CNC(=O)c1cc(NC(=O)[C@H](CCCNC(=N)N)NC(=O)[C@@H]2CCCN2C(=O)[C@H](N)Cc2ccccc2)ccc1[N+](=O)[O-] [D-Phe-Pro-Arg-ANBA-neopentylamide]
Response: 0,011

Query: Value lookup for Difference in extinction (hydrolysis of chromogenic substrate); key = CC(C)NC(=O)c1cc(NC(=O)[C@H](CCCNC(=N)N)NC(=O)[C@@H]2CCCN2C(=O)[C@H](N)Cc2ccccc2)ccc1[N+](=O)[O-] [D-Phe-Pro-Arg-ANBA-isopropylamide, H-D-Phe-Pro-Arg-ANBA-isopropylamide]
Response: 0,010

Query: Value lookup for Difference in extinction (hydrolysis of chromogenic substrate); key = Cc1ccc(S(=O)(=O)NCC(=O)N2CCC[C@H]2C(=O)N[C@@H](CCCNC(=N)N)C(=O)Nc2ccc([N+](=O)[O-])c(C(=O)NC(C)C)c2)cc1 [Tos-Gly-Pro-Arg-ANBA-isopropylamide]
Response: 0,030

// provenance: patent US4784944A
